Measured IC50 accompanies every entry in the list below.
- Tested on: VCaP cells
- assay_remarks: VCaP growth inhibition assay
- Assay type: cell-based
- cond: 30 pM R1881, 9 days, CTG

[[record]]
molecule = "CC(=O)N1CCc2c(c(N3CCCc4cc(-c5cnn(C)c5)c(C(F)F)cc43)nn2C2CCN(CC3C(C)CN(c4ncc(C(=O)NC5C(C)(C)C(Oc6ccc(C#N)c(Cl)c6)C5(C)C)cn4)CC3C)CC2)C1 (centres unmarked) [Compound 350]"
result = "≤ 0.1 nM"


Continue with the next molecule.
Please give the documented IC50 of CNC(=O)N1CCc2c(c(N3CCCc4cc(-c5cnn(C)c5)c(C(F)F)cc43)nn2C2CCN(C(=O)COCCOC3CCN(c4ncc(C(=O)NC5C(C)(C)C(Oc6ccc(C#N)c(Cl)c6)C5(C)C)cn4)CC3)CC2)C1 (centres unmarked) [Compound 98]
≤ 0.1 nM

----------
- Test system: VCaP cells
- assay_remarks: VCaP growth inhibition assay
- Format: cell-based
- cond: 30 pM R1881, 9 days, CTG
quantity_name: IC50

[[record]]
compound = "CC(=O)N1CCc2c(c(-c3cccc4cc(-c5ccc(C(=O)NCCOCc6ncc(C(=O)NC7C(C)(C)C(Oc8ccc(C#N)c(Cl)c8)C7(C)C)cn6)nc5)ncc34)nn2C2CCOCC2)C1 (stereo not drawn)"
result = "≤ 0.1 nM"

[[record]]
compound = "COc1cc(OC2C(C)(C)C(NC(=O)c3ccc(OC4CC5(CCC(N6CCC(n7nc(N8CCCc9cc(-c%10cnn(C)c%10)c(C(F)F)cc98)c8c7CCN(C(C)=O)C8)CC6)CC5)C4)cc3)C2(C)C)ccc1C#N (stereo not drawn)"
result = "≤ 0.1 nM"


Please give the documented IC50 of COc1cc(OC2C(C)(C)C(NC(=O)c3ccc(C#CC4CC(N5CCC(n6nc(N7CCCc8cc(-c9cnn(C)c9)c(C(F)F)cc87)c7c6CCN(C(C)=O)C7)CC5)C4)cc3)C2(C)C)ccc1C#N (stereo not drawn)
0.1 to 1 nM

Please give the documented IC50 of COc1cc(OC2C(C)(C)C(NC(=O)c3ccc(N4CC(C)C(CN5CCC(n6nc(N7CCCc8cc(-c9cnn(C)c9)c(C(F)F)cc87)c7c6CCN(C(C)=O)C7)CC5)C(C)C4)cc3)C2(C)C)ccc1C#N (stereo not drawn)
0.1 to 1 nM

Please give the documented IC50 of CC(=O)N1CCc2c(c(N3CCCc4cc(-c5cnn(C)c5)c(C(F)F)cc43)nn2C2CCN(CC3CN(c4ncc(C(=O)NC5C(C)(C)C(Oc6ccc(C#N)c(Cl)c6)C5(C)C)cn4)C3)CC2)C1 (stereo not drawn)
≤ 0.1 nM

Please give the documented IC50 of CC(=O)N1CCc2c(c(-c3cccc4cc(-c5cnn(CCC6CCN(c7ncc(C(=O)NC8C(C)(C)C(Oc9ccc(C#N)c(Cl)c9)C8(C)C)cn7)CC6)c5)ncc34)nn2C2CCOCC2)C1 (stereo not drawn)
≤ 0.1 nM

Please give the documented IC50 of CC(=O)N1CCc2c(c(N3CCCc4cc(C#N)ccc43)nn2C2CC3(C2)CN(C(=O)C2CC4(C2)CN(c2ncc(C(=O)NC5C(C)(C)C(Oc6ccc(C#N)c(Cl)c6)C5(C)C)cn2)C4)C3)C1 (stereo not drawn)
1 to 100 nM

Please give the documented IC50 of CC(=O)N1CCc2c(c(N3CCCc4cc(-c5cnn(C)c5)c(C)cc43)nn2C2CCN(CC3CCN(c4ncc(C(=O)NC5C(C)(C)C(Oc6ccc(C#N)c(C)c6C)C5(C)C)cn4)CC3(C)C)CC2)C1 (stereo not drawn)
0.1 to 1 nM

Please give the documented IC50 of CNC(=O)N1CCc2c(c(N3CCCc4cc(-c5cnn(C)c5)c(C(F)F)cc43)nn2C2CCN(C(=O)COCCCN3CCN(c4ncc(C(=O)NC5C(C)(C)C(Oc6ccc(C#N)c(Cl)c6)C5(C)C)cn4)CC3)CC2)C1 (stereo not drawn)
0.1 to 1 nM

----------
Measured IC50 accompanies every entry in the list below.
- System: VCaP cells
- assay_remarks: VCaP growth inhibition assay
- Type: cell-based
- cond: 30 pM R1881, 9 days, CTG
- Procedure: VCaP cells (ATCC Cat #CRL-2876) are plated at 1×10^4 cells per well of a white plastic 96-well cluster plate (Thermo Scientific Nunc Cat #165306) in 100 uL phenol red-free DMEM (Gibco Cat #21063-029) media with 5% CSS (Omega Scientific Cat #FB-04). Cluster plates are returned to the incubator (37*C/5% CO2) for 72 hours prior to treatment. […]

[[record]]
compound = "COc1cc(OC2C(C)(C)C(NC(=O)c3ccc(N4CCC(CN5CCC(n6nc(-c7cccc8cc(-c9cnn(C)c9)ncc78)c7c6CCN(C(C)=O)C7)CC5)CC4)cc3)C2(C)C)ccc1C#N (stereo not shown) [Compound 253]"
target_or_system = "VCaP cells"
result = "≤ 0.1 nM"

[[record]]
compound = "COc1cc(OC2C(C)(C)C(NC(=O)c3ccc(N4CC5(CCC(N6CCC(n7nc(N8CCCc9cc(-c%10cnn(C)c%10)c(C)cc98)c8c7CCN(C(C)=O)C8)CC6)CC5)C4)cc3)C2(C)C)ccc1C#N (stereo not shown) [Compound 449]"
target_or_system = "VCaP cells"
result = "0.1 to 1 nM"

[[record]]
compound = "Cn1cc(-c2cc3c(cc2C(F)F)N(c2cc(C4CCN(CC5CCN(c6ncc(C(=O)NC7C(C)(C)C(Oc8ccc(C#N)c(Cl)c8)C7(C)C)cn6)CC5)CC4)c4c(c2)n(C)c(=O)n4C)CCC3)cn1 (stereo not shown) [Compound 214]"
target_or_system = "VCaP cells"
result = "1 to 100 nM"

[[record]]
compound = "CC(=O)N1CCc2c(c(-c3cccc4cc(-c5ccc(OCc6ncc(C(=O)NC7C(C)(C)C(Oc8ccc(C#N)c(Cl)c8)C7(C)C)cn6)nc5)ncc34)nn2C2CCOCC2)C1 (stereo not shown) [Compound 72]"
target_or_system = "VCaP cells"
result = "0.1 to 1 nM"


Return reported IC50 for target or system VCaP cells, item CC(=O)N1CCc2c(c(-c3cccc4cc(-c5ccc(CCC6CC7(C6)CN(c6ncc(C(=O)NC8C(C)(C)C(Oc9ccc(C#N)c(Cl)c9)C8(C)C)cn6)C7)nc5)ncc34)nn2C2CCOCC2)C1 (stereo not shown) [Compound 227] .
≤ 0.1 nM

Return reported IC50 for target or system VCaP cells, item COc1cc(OC2C(C)(C)C(NC(=O)c3ccc(N4CC(C)C(CN5CCC(n6nc(N7CCCc8cc(C#N)c(C(F)F)cc87)c7c6CCN(C(C)=O)C7)CC5)C(C)C4)cc3)C2(C)C)ccc1C#N (stereo not shown) [Compound 459] .
0.1 to 1 nM

Return reported IC50 for target or system VCaP cells, item CC(=O)N1CCc2c(c(N3CCCc4cc(-c5cnn(C)c5)ccc43)nn2C2CCN(CC3CCN(c4ncc(C(=O)NC5C(C)(C)C(Oc6ccc(C#N)c(Cl)c6)C5(C)C)cn4)CC3)CC2)C1 (stereo not shown) [Compound 24] .
0.1 to 1 nM

Return reported IC50 for target or system VCaP cells, item CC(=O)N1CCc2c(c(N3CCCc4cc(-c5cnn(C)c5)c(C(F)F)cc43)nn2C2CCN(C3CCC(C#Cc4ncc(C(=O)NC5C(C)(C)C(Oc6ccc(C#N)c(Cl)c6)C5(C)C)cn4)CC3)CC2)C1 (stereo not shown) [Compound 293] .
0.1 to 1 nM

Return reported IC50 for target or system VCaP cells, item C[C@@H]1CC(=O)Nc2cccc(-c3ccc4c(c3)c(-c3cnn(C)c3)nn4C3CCN(c4ncc(C(=O)NC5C(C)(C)C(Oc6ccc(C#N)c(Cl)c6)C5(C)C)cn4)CC3)c2N1 (stereo partly shown) [Compound 60] .
> 100 nM

Return reported IC50 for target or system VCaP cells, item COc1cc(OC2C(C)(C)C(NC(=O)c3ccc(N4CCC(C5CCN(c6ccc(-c7cc8cccc(-c9nn(C%10CCOCC%10)c%10c9CN(C(C)=O)CC%10)c8cn7)cn6)CC5)CC4)cc3)C2(C)C)ccc1C#N (stereo not shown) [Compound 267] .
1 to 100 nM

----------
Measured pIC50 accompanies every entry in the list below.
- Tested on: VCaP cells
- assay_remarks: VCaP growth inhibition assay
- Type: cell-based
- cond: 30 pM R1881, 9 days, CTG
pIC50: −log10 of the molar value.

Please give the documented pIC50 of CC(=O)N1CCc2c(c(N3CCCc4cc(-c5cnn(C)c5)c(C)cc43)nn2C2CCN(CC3CCN(c4ncc(C(=O)NC5C(C)(C)C(Oc6ccc(C#N)c(Cl)c6)C5(C)C)cn4)CC3)CC2)C1 (centres unmarked)
9.00 to 10.00

Please give the documented pIC50 of COc1cc(OC2C(C)(C)C(NC(=O)c3ccc(N4CCC(CN5CCC(n6nc(N7CCCc8cc(-c9cnn(C)c9)c(C)cc87)c7c6CCN(C(C)=O)C7)CC5)C(C)(C)C4)cc3)C2(C)C)ccc1C#N (centres unmarked)
9.00 to 10.00

Please give the documented pIC50 of CC(=O)N1CCc2c(c(-c3cccc4cc(-c5cnn(CCC6CC7(C6)CN(c6ncc(C(=O)NC8C(C)(C)C(Oc9ccc(C#N)c(Cl)c9)C8(C)C)cn6)C7)c5)ncc34)nn2C)C1 (centres unmarked)
≥ 10.00

Please give the documented pIC50 of CC(=O)N1CCc2c(c(N3CCCc4cc(-c5cnn(C)c5)c(C(F)F)cc43)nn2C2CCN(C(C)COC3CCN(c4ncc(C(=O)NC5C(C)(C)C(Oc6ccc(C#N)c(Cl)c6)C5(C)C)cn4)CC3)CC2)C1 (centres unmarked)
≥ 10.00

Please give the documented pIC50 of COc1cc(OC2C(C)(C)C(NC(=O)c3ccc(N4CCC5(CC4)CCN(c4ccc(-c6cc7cccc(-c8nn(C9CCOCC9)c9c8CN(C(C)=O)CC9)c7cn6)cn4)CC5)cc3)C2(C)C)ccc1C#N (centres unmarked)
9.00 to 10.00
